# experiment_notes: self-splicing fitness, log relative to wild type (ln ratio); higher = more splicing; Tetrahymena group I intron in knt gene, E. coli kanamycin selection, DiMSum; sequences stand for … in CUCUCU…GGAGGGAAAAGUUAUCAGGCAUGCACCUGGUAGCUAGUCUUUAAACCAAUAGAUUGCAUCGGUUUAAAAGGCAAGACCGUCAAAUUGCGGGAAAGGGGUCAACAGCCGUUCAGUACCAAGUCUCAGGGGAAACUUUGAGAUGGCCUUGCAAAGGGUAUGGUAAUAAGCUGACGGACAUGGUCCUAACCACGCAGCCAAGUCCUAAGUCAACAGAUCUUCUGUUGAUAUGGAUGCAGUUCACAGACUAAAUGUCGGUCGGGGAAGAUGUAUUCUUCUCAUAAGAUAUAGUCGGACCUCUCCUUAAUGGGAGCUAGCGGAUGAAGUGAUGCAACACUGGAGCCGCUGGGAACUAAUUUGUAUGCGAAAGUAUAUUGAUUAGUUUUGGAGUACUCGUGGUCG;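 note: selection with 25 µg/mL kanamycin versus none on LB agar overnight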
# applied_conditions: 37 °C
Quick reference: self-splicing fitness (ln) of the listed items.
Keep the answer to the number alone.

A selection of reference data follows.
sequence_text=AUACAGCAAUAUUACGCGGU endpoint_value=-2.04
sequence_text=CCAGAGCAAUAUUACGGGGU endpoint_value=-2.78
sequence_text=UACUAGCAAUAUUACGCGUC endpoint_value=-1.81

Consider the sequence shown here: CGCCAGCAAUAUUACGCGAG What is its recorded self-splicing fitness (ln)? -2.97

Endpoint output: self-splicing fitness (ln) of CUUCAGCAAUAUUACGUAGA . Value? -2.92

GET /values?readout=self-splicing fitness (ln)&item= ACUGAGCAAUAUUACGUCUU -1.11
